# fluorescence slope per record follows
# study_target: Voltage-gated potassium channel subunit beta-2 (Rattus norvegicus) (UniProt P62483)
# Sequence (P62483 whole entry, looked up): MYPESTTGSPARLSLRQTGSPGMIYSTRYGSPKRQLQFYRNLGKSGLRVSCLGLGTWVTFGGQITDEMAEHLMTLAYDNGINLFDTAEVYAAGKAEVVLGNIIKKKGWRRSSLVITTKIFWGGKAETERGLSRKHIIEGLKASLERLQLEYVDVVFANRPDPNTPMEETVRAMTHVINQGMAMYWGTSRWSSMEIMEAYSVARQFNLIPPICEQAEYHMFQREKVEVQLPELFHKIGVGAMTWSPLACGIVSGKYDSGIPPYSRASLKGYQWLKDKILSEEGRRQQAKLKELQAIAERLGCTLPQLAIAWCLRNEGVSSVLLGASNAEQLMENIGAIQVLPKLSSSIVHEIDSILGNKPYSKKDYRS
# measurement_protocol: inhibitors of rat Kvbeta2 reductase activity – biochemical, NADPH fluorescence, primary screen (AID 622);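 note: slope of raw intensity against log time taken from 70 to 1610 s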
# condition_set: recombinant KvBeta, 4-cyanobenzaldehyde reduction, at 10 µM, active compounds read high
metric_name: fluorescence slope

Cc1cccc(NC2SC(=O)N(c3ccccc3)C2=O)c1 (stereo unspecified)
-0.377
CCOc1ccc(C(=O)CN2CCN(S(=O)(=O)c3ccc(OC)cc3)CC2)cc1
-0.391
O=C(Nc1ncc2c(n1)CC(c1ccccc1)CC2=O)c1ccco1 (stereo unspecified)
-0.534
C=CCn1c(=O)n(CCOC)c(=O)c2sc3ccccc3c21
-0.566
COC(C)(C)c1cc(C(C)(C)C)nc(N)n1
-0.385
CCOC(=O)c1c(C)[nH]c(C(=O)COC(=O)C2CC2C)c1C (stereo unspecified)
-0.504
CCOc1ccc(-c2nc(C#N)c(N3CCCCCC3)o2)cc1
-0.579
CCN(CC)CCNC(=O)CCn1c(=S)[nH]c2cc3c(cc2c1=O)OCO3
-0.501
Cc1nc(CNS(=O)(=O)c2cccc(F)c2)cs1
-0.506
COc1cc2c(cc1OC)-c1nnc(C)n1C1(CCCC1)C2
-0.606
CC(C)Cc1nc2oc3c(N4CCN(CCO)CC4)ncnc3c2c2c1CCCC2
-0.475
